Assay: qHTS assay for small molecules that induce genotoxicity in human embryonic kidney cells expressing luciferase-tagged ATAD5 (AID 651632); also: nearly all actives have a fitted effect of over 15% in size
Conditions: HEK293T ATAD5-luciferase induction, 16 h; series mostly up to 83.3 µM
Inconclusive results are not listed. Calls of active or inactive are those of the source. Calls follow the shape of the dose curve; as a rule, active = well fitted activation curve with a large enough effect in the repeat runs; inconclusive = weak or mixed curves; inactive = no such curve, though single readings can be large or run the other way.
REPORTED PROPERTY: outcome

Known results for compounds:
Given the entry `O=C(Nc1cccc([N+](=O)[O-])c1)c1cc2ccccc2cc1O` , report its measured outcome. inactive

Given the entry `Cc1ccc2oc(CN(Cc3ccccc3)C(=O)Nc3c(F)cc(F)cc3F)c(-c3ccc(Cl)cc3)c2c1` , report its measured outcome. inactive

Given the entry `N/C(=N\N=C\c1ccc(Cl)cc1)N/N=C/c1ccc(Cl)cc1` , report its measured outcome. inactive

Given the entry `Nc1c2ccccc2nc2ccccc12` , report its measured outcome. inactive

Given the entry `Cc1[nH]cnc1C[C@H]1CCc2c(C)c3ccccc3n2C1=O` , report its measured outcome. inactive

# map each compound to its outcome
1. CCC(C)Nc1ccc(NC(C)CC)cc1 (configuration not stated)
2. CCCCCCCCCCCCCCCCCC[N+](C)(C)C

["inactive", "inactive"]

----------
Assay: qHTS assay for identifying genotoxic compounds that show differential cytotoxicity against isogenic chicken DT40 cell lines with known DNA damage response pathways - wild type cell line (AID 743012); also: nearly all actives have a fitted effect of over 60% in size; also: potency is read from the fitted curve at half-maximal effect
Details: DT40 wild type chicken cells viability, CellTiter-Glo, 40 h; series mostly up to 68.4 µM
Records with an inconclusive call do not appear. Active and inactive are the calls of the source. Calls come from the whole dose curve; as a rule, active = well fitted cell-killing curve with a large enough effect in the repeat runs; inconclusive = weak or mixed curves, or effect the other way; inactive = no such curve, though single readings can be large or run the other way.
REPORTED PROPERTY: Potency

Known results for compounds:
Given the entry `CCCCCCCCCCCCCCCCCC[N+](C)(C)C` , report its measured Potency. 2.74 µM (active)

Given the entry `CCCC(=O)OC[C@@H](OC(=O)CCC)[C@@H](OC(=O)CCC)[C@H](Cn1c2nc(=O)[nH]c(=O)c-2nc2cc(C)c(C)cc21)OC(=O)CCC` , report its measured Potency. 11.9 µM (active)

Given the entry `CC(C)(C)c1ccc(C(=O)O)cc1` , report its measured Potency. inactive

Given the entry `NNc1nc(-c2ccc(N)cc2)cs1` , report its measured Potency. 17.2 µM (active)

# map each compound to its Potency
1. CC(C)(C)c1ccc(C(=O)CCCN2CCC(OC(c3ccccc3)c3ccccc3)CC2)cc1
2. CCCCCCCCCCCCCCCC(=O)OC[C@H](O)[C@H]1OC(=O)C(O)=C1O

1. 4.22 µM (active)
2. inactive

# map each compound to its Potency
1. Cc1c(C)c2c(c(C)c1OC(=O)CCC(=O)O)CC[C@@](C)(CCC[C@H](C)CCC[C@H](C)CCCC(C)C)O2
2. Fc1ccc([C@@H]2CCNC[C@H]2COc2ccc3c(c2)OCO3)cc1
3. COc1cc(-c2ccc(N=C=O)c(OC)c2)ccc1N=C=O
4. O=C(O)c1ccc(Cl)c(Cl)c1

inactive
3.76 µM (active)
inactive
inactive

----------
Assay: qHTS assay to identify small molecule agonists of the estrogen receptor alpha (ER-alpha) signaling pathway in the presence of an antagonist - cell viability counter screen (AID 1259386);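 also: cells exposed to compounds for 22 h at 37 °C before the viability read; nearly all actives have a fitted effect of over 30% in size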
Conditions: VM7Luc4E2 viability, CellTiter-Fluor fluorescence, 22 h; series mostly up to 92.4 µM
Results filed as inconclusive are left out. Active and inactive are the calls of the source. The call rests on the fitted dose curve; in most records, active means well fitted cell-killing curve with a large enough effect in the repeat runs; inconclusive means weak or mixed curves, or effect the other way; inactive means no such curve, though single readings can be large or run the other way.
Response enum: yes (active), no (inactive)

Tell me the recorded outcome of this test for `Nc1ccc2cc(S(=O)(=O)O)cc(O)c2c1N=Nc1ccccc1C(F)(F)F` . yes

Tell me the recorded outcome of this test for O=C(OCC1CO1)C1CCCCC1C(=O)OCC1CO1 (stereo unspecified) . no

Tell me the recorded outcome of this test for `C[C@]12CCC(=O)C=C1CC[C@@H]1[C@@H]2[C@@H](O)C[C@@]2(C)[C@H]1CC[C@]2(O)C(=O)COC(=O)CCC(=O)O` . no
